Test name: yeast display, Sf9 membrane polyspecificity reagent, FACS + sequencing; frameworks hold sequencing errors

Sequence data	polyreactivity (PSR sort gate)
QVQLVESGGGLVQAGGSLRLSCAASGSIFTPNVKGRYRQAPGKERELVAAISQSGGSTFYADSVKGRFSFSRDNAKKTVYLQMNSLKPEDTAVYYCASEYYGPVYDLDFDYWGQGTQVTVSS	low polyreactivity
QVQLVESGGGLVQAAASLRLSCPASGSTFRFYTMALYIQSPGTESDLVAAITRRGGITFYSDSVKWRFTISRDNAKNTVYLHMNSLKPEDTAVYDCAARFAYWGQDYYFWGQGSQVTVSS	high polyreactivity
QVQLVESGGGLVQAGGSLRLISAASGNIVYFNAMGWYRQAPGKERELVAAISRAGSTYYADSVKGRFTISRDNAKNTVYLQMNSLKQEDTAVYYCAATTGRPDNYYYWGQGTQVTVSS	high polyreactivity
QVQLVESGGGLVQAGGSLRISCAASGSIFLIFAMGWYRQSPGKERELVAAITQRGGSTYYADSVKGRFTISRDNAKNTVYFQMDSLKPEDTAVYYCNARRYVLRYNRFYYWGQGTQVTVSS	high polyreactivity
QVQLVESGGGLVQAGGSLRLSCAASGSIFTKYAMGWYRQAPGKEREFVAAITLSGGSTYYADSVKGRFTIGRDNAKNTVYLQMNSLKPEDTAVYYCNAAYTYVTAWYYYWGQGTQVTVSS	high polyreactivity
QVQLVESGGGLVQAGGSLRLSCAASGIIFIGNAMGWYRQAPGKERELVAAISRRGGRTYYADSVKGRFTISRDNAKNTVYLQMNSLKPEDTAVYYCNAEITVNDDDYWGQGTQVTVSS	low polyreactivity
QVKRVESGGGLVQAGGSLRLSCAASGIIFTYYAMGWYRQAPGKERELVAAISWTGGRTYFADSVKGRFTISRDNAKNTVYLQMNSLKREDTAVYYCAAKQYTRFGYYYWGQGTQVTVSS	high polyreactivity
QVQLVESGGGLVQAGGSLRLSCAASGSIFRPYAMGWYRQAPGKERELVAAISVRGGRSYYADSVKGRFTISRDNAKNTVYLQMNSLKPEDTAVYYCNTVRQLGYTGYDYWGQGTQVTVSS	high polyreactivity
QVQLVESGGGLVQAGGSLRLSCAASGGIFPGNAMGWYRPAPGKERELVATISYSGGSTYYADSVKGRFTISRDNAKNTVYLQMNSLKPEDTAVYYCAARGYKPTRSRRTEYGYWGQGTQVTVSS	high polyreactivity
QVQLVESGGGLVQAGGSLRLSCAASGITFPRYVMGWYRQAPGKEREFVAAINYSGGRTYYADSVKGRFTISRDNAKNTVYLQMNSLKPEDTAVYYCAVDLHVWPFWYDYWGQGTQVTVSS	high polyreactivity
QVQLVESGGGLVQAGGSLRLSCAASGRIFYYYAMGWYRQAPRKERELVASINSGGSTYYADSVKGRFTISRDNAKNTVYLQMNSMKPEDTAVYYCAAGFQLVKGYLSGRAAYYYWGQGTQVTVSS	high polyreactivity
